src = patent US12281155

Target: T1, recombinant SARS-CoV-2 Spike RBD domain, XBB.1.5 variant (SARS-CoV-2)
T1 construct: also called RBD XBB.1.5 variant
Experiment: competition ELISA, blocking of RBD binding to ACE2 ectodomain
We begin with a simple list: items and their reported Blocking %.
Numeric answer only, unit % assumed.

binder	reading_unit	Blocking %
SPK002M A2 antibody (antibody, human IgG1, kappa, V domains shown) VH: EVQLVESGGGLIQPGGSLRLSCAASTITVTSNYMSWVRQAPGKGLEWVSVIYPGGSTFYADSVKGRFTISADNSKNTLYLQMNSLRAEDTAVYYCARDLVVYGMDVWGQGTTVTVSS VL: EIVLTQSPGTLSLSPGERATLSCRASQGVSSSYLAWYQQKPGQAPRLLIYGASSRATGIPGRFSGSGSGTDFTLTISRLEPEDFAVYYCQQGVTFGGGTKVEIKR	%	96

Could you now consider this next binder?
Exercise: Blocking % lookup needed for SPK002M A1 antibody (antibody, human IgG1, kappa, V domains shown) VH: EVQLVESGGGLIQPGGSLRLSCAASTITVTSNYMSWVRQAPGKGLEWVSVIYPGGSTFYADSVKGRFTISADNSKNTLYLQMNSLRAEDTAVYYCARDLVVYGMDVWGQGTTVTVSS VL: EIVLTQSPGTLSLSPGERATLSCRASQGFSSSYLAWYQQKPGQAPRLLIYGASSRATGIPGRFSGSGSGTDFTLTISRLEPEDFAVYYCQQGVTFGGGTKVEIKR , thanks.
Solution: 97
